target: human β3 adrenergic receptor (Homo sapiens); construct: expressed in transfected cells; host or cells: Chinese hamster ovary (CHO) cells, stably transfected; assay: Functional assay: cAMP production (LANCE TR-FRET) in CHO cells stably transfected with cloned β3 adrenergic receptor; format: cell-based; settings: Table 4; human β3 functional activity; read-out: Human β Binding
Sequence (P13945 whole entry): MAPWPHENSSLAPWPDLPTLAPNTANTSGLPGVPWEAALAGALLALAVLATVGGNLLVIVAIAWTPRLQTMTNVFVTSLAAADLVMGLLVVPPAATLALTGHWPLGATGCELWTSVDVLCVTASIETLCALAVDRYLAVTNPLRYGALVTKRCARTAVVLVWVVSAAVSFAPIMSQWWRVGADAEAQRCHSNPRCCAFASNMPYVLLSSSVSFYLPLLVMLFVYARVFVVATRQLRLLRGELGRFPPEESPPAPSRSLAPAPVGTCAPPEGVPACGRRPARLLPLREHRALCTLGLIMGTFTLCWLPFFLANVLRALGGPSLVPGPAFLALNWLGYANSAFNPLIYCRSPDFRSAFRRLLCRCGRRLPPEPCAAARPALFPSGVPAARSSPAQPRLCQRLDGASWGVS
MEASURED_ATTRIBUTE: EC50

Solved entries (count: 2):
O=C(Nc1ccc(C[C@@H]2CC[C@H]([C@H](O)c3ccccc3)N2)cc1)c1ccccc1-c1nc2ccccc2s1	101 to 1000 nM
O=C(Cc1nnc(-c2ccncc2)[nH]1)Nc1ccc(C[C@@H]2CC[C@H]([C@H](O)c3ccccc3)N2)cc1	11 to 100 nM

Each compound below has a reported value. Please supply its EC50.
1. Cc1nn(CC(=O)Nc2ccc(C[C@@H]3CC[C@H]([C@H](O)c4ccccc4)N3)cc2)c(=O)c2ccccc12
2. O=C(Cn1c(=O)[nH]c(=O)c2ccccc21)Nc1ccc(C[C@@H]2CC[C@H]([C@H](O)c3ccccc3)N2)cc1
3. O=C(Cc1nnc(-c2ccccc2)[nH]1)Nc1ccc(C[C@@H]2CC[C@H]([C@H](O)c3ccccc3)N2)cc1
4. CC1=NN(CC(=O)Nc2ccc(C[C@@H]3CC[C@H]([C@H](O)c4ccccc4)N3)cc2)C(=O)C1

Marked response:
["1 to 10 nM", "1 to 10 nM", "< 1 nM", "11 to 100 nM"]

Fill in EC50 for each of the 4 compounds listed.
1. O=C(Cc1ccncc1)Nc1ccc(C[C@@H]2CC[C@H]([C@H](O)c3ccccc3)N2)cc1
2. O=C(CC1CCCNC1=O)Nc1ccc(C[C@@H]2CC[C@H]([C@H](O)c3ccccc3)N2)cc1 (some centres unmarked)
3. O=C(Cc1cnccn1)Nc1ccc(C[C@@H]2CC[C@H]([C@H](O)c3ccccc3)N2)cc1
4. O=C(Cn1ccncc1=O)Nc1ccc(C[C@@H]2CC[C@H]([C@H](O)c3ccccc3)N2)cc1

Marked response:
1000 to 3000 nM
101 to 1000 nM
1 to 10 nM
11 to 100 nM

---

Exercise: for every item that follows, state its recorded EC50.
target: human β3 adrenergic receptor (Homo sapiens); construct: expressed in transfected cells; host or cells: Chinese hamster ovary (CHO) cells, stably transfected; assay: Functional assay: cAMP production (LANCE TR-FRET) in CHO cells stably transfected with cloned β3 adrenergic receptor; type: cell-based; details: Table 4; human β3 functional activity; read-out: Human β Binding

O=C(Nc1ccc(C[C@@H]2CC[C@H]([C@H](O)c3ccccc3)N2)cc1)C1CCCN1c1cc(Cl)cc(Cl)c1 (stereo partly shown)	11 to 100 nM
O=C(Cn1cccnc1=O)Nc1ccc(C[C@@H]2CC[C@H]([C@H](O)c3ccccc3)N2)cc1	1 to 10 nM
O=C(Cn1nc(Cc2ccccc2)c2ccccc2c1=O)Nc1ccc(C[C@@H]2CC[C@H]([C@H](O)c3ccccc3)N2)cc1	1 to 10 nM

Look at each compound and report its EC50.
1. O=C(Cn1nc2ccccc2n1)Nc1ccc(C[C@@H]2CC[C@H]([C@H](O)c3ccccc3)N2)cc1
2. O=C(Cn1ccc2ncccc2c1=O)Nc1ccc(C[C@@H]2CC[C@H]([C@H](O)c3ccccc3)N2)cc1
3. O=C(Nc1ccc(C[C@@H]2CC[C@H]([C@H](O)c3ccccc3)N2)cc1)c1ccccc1-n1nccn1

Marked response:
1 to 10 nM
1 to 10 nM
11 to 100 nM

# per-item lookup of EC50; items listed below
1. Cn1nnnc1CC(=O)Nc1ccc(C[C@@H]2CC[C@H]([C@H](O)c3ccccc3)N2)cc1
2. O=C(Cn1ncnn1)Nc1ccc(C[C@@H]2CC[C@H]([C@H](O)c3ccccc3)N2)cc1
3. O=C(CC1NC(=O)NC1=O)Nc1ccc(C[C@@H]2CC[C@H]([C@H](O)c3ccccc3)N2)cc1 (stereo partly shown)
4. O=C(Nc1ccc(C[C@@H]2CC[C@H]([C@H](O)c3ccccc3)N2)cc1)C1CCCN1c1cccc(I)c1 (stereo partly shown)
5. Cc1nc(C)c(CC(=O)Nc2ccc(C[C@@H]3CC[C@H]([C@H](O)c4ccccc4)N3)cc2)s1 [Example 9]
6. O=C(Nc1ccc(C[C@@H]2CC[C@H]([C@H](O)c3ccccc3)N2)cc1)c1ccccc1CCn1cccc1

Marked response:
11 to 100 nM
11 to 100 nM
101 to 1000 nM
11 to 100 nM
101 to 1000 nM
11 to 100 nM

Exam item: For the compound shown here, O=C(Cc1nnc(-c2ccn[nH]2)[nH]1)Nc1ccc(C[C@@H]2CC[C@H]([C@H](O)c3ccccc3)N2)cc1 , give the reported EC50.
Marked response: 1 to 10 nM
